MEASUREMENT PROTOCOL: adipocyte viability effects, profiling panel, cell-based, 3T3-L1 adipocytes, calcein-AM fluorescence, 48 h, basal (AID 1163); also: test concentration not given here
COND: 3T3-L1 adipocytes viability, higher = more signal
MEASURED ENDPOINT: z-score
One number for each entry.

Solved entries:
{"COMPOUND": "CCCCC(O)C1C=CC2C(=O)NC(=O)C2N1Nc1ccc(Cl)cc1Cl (stereo not drawn)", "z-score": 0.266}
{"COMPOUND": "COCC1=C([C@H](O)CCc2ccccc2)[C@H](CO)n2c(=O)n(-c3ccccc3)c(=O)n2C1", "z-score": 0.102}
{"COMPOUND": "O=C1O[C@H](c2ccccc2)[C@H](c2ccccc2)N2[C@H]1[C@@H](C(=O)NC[C@H](O)c1ccccc1)[C@]1(C(=O)Nc3ccc(C#CCCO)cc31)[C@H]2c1ccccc1OCCO", "z-score": 1.43}
{"COMPOUND": "C=CCNC(=O)[C@H]1[C@@H]2C(=O)O[C@@H](c3ccccc3)[C@@H](c3ccccc3)N2[C@@H](c2ccccc2OCCO)[C@]12C(=O)N(C(=O)OCCOC)c1ccccc12", "z-score": -0.575}
{"COMPOUND": "[N-]=[N+]=NCc1ccccc1C[C@]1(C(=O)O)COC(c2ccc(OCCCO)cc2)=N1", "z-score": -0.379}
{"COMPOUND": "COc1ccc([Si](C)(C)[C@H]2[C@H](CCO)O[C@@]3(C(=O)N(Cc4ccc(N5CCOC5=O)cc4)c4ccccc43)[C@@H]2C)cc1", "z-score": 0.684}
{"COMPOUND": "COC(=O)Cn1c(C(=O)N(C)C)cc2c1C[C@H]1CN(C(=O)c3ccccc3)[C@@](Cc3ccc(OC)cc3)(C(=O)OC)[C@@H]21", "z-score": -0.714}
{"COMPOUND": "C=CCNC(=O)[C@@H]1[C@H]2C(=O)O[C@H](c3ccccc3)[C@H](c3ccccc3)N2[C@H](c2ccccc2OCCO)[C@@]12C(=O)N(C(=O)OCCOC)c1ccc(C#CCCO)cc12", "z-score": 0.393}

Take each entry in turn and give its z-score.
1. CCCC[C@H]1OB(O)C[C@H]2C1=C(COC)C[C@H]1C(=O)C=CC(=O)[C@H]12
2. CCC[C@@H]1[C@@H](Sc2ccccc2)[C@@H](C(=O)O)[C@H](c2ccc(C)cc2)N1S(=O)(=O)c1ccc(C)cc1
3. CCCC=C(CCC)[C@@H](NC(=O)c1ccco1)c1ccc(C(=O)OC)cc1
4. O=C1c2ccccc2[C@@]2(Cc3ccccc3N(Cc3ccccc3)C2=O)[C@H](c2ccc(CO)cc2)N1Cc1ccccc1
5. Cc1ccccc1C(O)C1C=CC2C(=O)N(c3ccccc3)C(=O)C2N1Nc1ccccc1F (stereo not drawn)

Marked response:
-0.0373
-0.571
-1.72
-0.269
-0.522

Go through the items and report each one's z-score.
1. C=C(/C(=C/C[C@H](OC(=O)c1ccncc1)c1ccccc1OCCO)c1cc(C(=O)OC)ccc1OC)C(C)C
2. COc1ccc(NN2C(C(O)c3cc(C(F)(F)F)cc(C(F)(F)F)c3)C=CC3C(=O)N(C4CCCCC4)C(=O)C32)cc1 (stereo not drawn)
3. C=CCOC(=O)[C@H]1[C@@H]2C(=O)O[C@@H](c3ccccc3)[C@@H](c3ccccc3)N2[C@@H](c2ccc(OCCOC(=O)[C@@H]3C[C@@H]4C(=O)N[C@@H](Cc5ccccc5)C(=O)N4[C@@H]3c3ccc(O)cc3)cc2)[C@]12C(=O)Nc1ccccc12
4. CN1C=C(C(=O)OCCS(C)(=O)=O)C(C(=O)OCCS(C)(=O)=O)=CC(CCCO)=CC1c1ccc(CN2CCCC2)cc1 (stereo not drawn)

Marked response:
1: 0.322; 2: -0.826; 3: -0.156; 4: -2.48

I need z-score for every entry listed below, if you could help.
1. CN(C)C(=O)[C@]1(Cc2ccccc2CN=[N+]=[N-])N=C(c2ccc(OCCCO)cc2)O[C@@H]1c1ccccc1N=[N+]=[N-]
2. CN1C(=O)C2C=CC(C(O)c3ccc(-c4ccccc4)s3)N(Nc3ccccc3)C2C1=O (stereo not drawn)
3. O=C1N(CCS(=O)(=O)c2ccccc2)c2ccccc2[C@@H]2OC(c3ccc(OCCCO)cc3)=N[C@]12CCS(=O)(=O)c1ccccc1
4. C=CCC(OC(C)=O)[C@@H]1[C@@H](N(Cc2ccc(-c3ccccc3)cc2)C(=O)c2ccc(C)cc2)c2cc(OCCCO)ccc2N1C(=O)c1ccc2ccccc2c1 (stereo partly drawn)
5. COc1cc2c(cc1O)C(C1CC1)N(Cc1ccc([N+](=O)[O-])o1)CC2 (stereo not drawn)
6. NC(=O)N1C(=O)C2C(C1=O)C1C=C(CCCO)C2C(c2ccc(CN3CCCC3)cc2)N1Cc1cccc(OC(F)(F)F)c1 (stereo not drawn)
7. C[C@H]1NC(=O)C([C@@H](C)OCc2ccccc2)NC(=O)[C@@]23C(=O)N[C@@H](Cc4ccccc4)C2[C@H](C)[C@@]2(C)O[C@H]2C3/C=C/C/C=C\CNC1=O (stereo partly drawn)

Marked response:
1: 0.287; 2: -1.2; 3: 0.675; 4: 0.558; 5: 0.393; 6: -0.0602; 7: 1.44

Hi there! I need z-score for each item below, if you can.
1. CCOC(=O)C[C@H]1[C@H](OC(=O)Cc2ccc3c(c2)OCO3)[C@@H](NC(=O)c2ccccc2)c2cc(OCCCO)ccc2N1C(=O)Cc1ccc(OC)cc1
2. CN(C)CCCCNC(=O)[C@H]1C[C@H]2C(=O)N[C@@H](Cc3ccccc3)C(=O)N2[C@H]1c1cccc(OCCO)c1
3. O=C1C2C=CC(C(O)c3cccc(O)c3)N(Nc3ccccc3F)C2C(=O)N1c1ccccc1 (stereo not drawn)
4. C[C@H]1C2[C@H](Cc3ccccc3)NC(=O)[C@]23C(=O)NCC(=O)N2CCC[C@H]2C(=O)NC/C=C\C/C=C/C3[C@@H]2O[C@]12C (stereo partly drawn)

Marked response:
1: 1.19; 2: -0.0901; 3: 0.906; 4: 0.491
